system-tested: T1, Cynomolgus TCR(AEA41865/AEA41866)-zipper protein (cynomolgus monkey)
T1 construct: also called cyTCR-zipper protein; cynoTCR zipper
T1 TCR alpha: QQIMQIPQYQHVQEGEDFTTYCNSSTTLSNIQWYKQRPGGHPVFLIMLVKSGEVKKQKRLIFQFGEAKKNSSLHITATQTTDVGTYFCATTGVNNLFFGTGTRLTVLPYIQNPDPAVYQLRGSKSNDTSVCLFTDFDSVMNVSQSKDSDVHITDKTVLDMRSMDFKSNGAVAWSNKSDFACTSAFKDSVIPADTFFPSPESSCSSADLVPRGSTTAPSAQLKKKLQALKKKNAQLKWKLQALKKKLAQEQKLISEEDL
T1 TCR beta: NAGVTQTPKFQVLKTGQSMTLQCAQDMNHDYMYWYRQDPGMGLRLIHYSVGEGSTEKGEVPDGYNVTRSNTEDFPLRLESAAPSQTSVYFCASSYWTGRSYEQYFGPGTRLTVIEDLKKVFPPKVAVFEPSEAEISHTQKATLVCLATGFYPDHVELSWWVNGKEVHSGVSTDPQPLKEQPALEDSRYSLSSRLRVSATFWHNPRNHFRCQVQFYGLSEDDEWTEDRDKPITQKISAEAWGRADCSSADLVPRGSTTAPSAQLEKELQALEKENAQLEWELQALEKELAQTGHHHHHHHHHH
assay-details: higher koff divided by lower koff, humanTCR zipper vs cynoTCR zipper (SPR)
property-measured: Gap in off-rate human vs cyno (fold)

1 = T017000624 (VHH, not shown: small tags and cut ends) VHH: EVQLVESGGGVVQPGGSLRLSCVASGYVHKINFYGWYRQAPGKEREKVAHISIGDQTDYADSAKGRFTISRDESKNTVYLQMNSLRPEDTALYYCRALSRIWPYDYWGQGTLVTVSS
2 = T017000625 (VHH, not shown: small tags and cut ends) VHH: EVQLVESGGGVVQPGGSLRLSCVASYDVHKINFYGWYRQAPGKEREKVAHISIGDQTDYADSAKGRFTISRDESKNTVYLQMNSLRPEDTALYYCRALSKIWPYDYWGQGTLVTVSS
Pick the one with the larger Gap in off-rate human vs cyno: 1 vs 2 Kindly give the label for the entry you pick.
1

Where do the numbers come from? From patent US20240092919A1.
